The origin of these recorded values is PubChem BioAssay.

assay: differential killing of epithelial or mesenchymal cells, primary screen, imaging, PC-3E GFP, TEM4-18 mCherry, co-culture (AID 1345086); details: imaging cell counts, measured here: epithelial PC-3E GFP cell survival, at 1 µM;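 also: cells exposed to compound for 72 h before imaging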
Kindly supply the reported normalised cell number values for the records listed here.

CCC(CC)O[C@@H]1C=C(C(=O)OC)C[C@H](N)[C@H]1NC(C)=O has a reported normalised cell number of 1.01

NC[C@@H]1O[C@H](O[C@@H]2[C@@H](CO)OC(O[C@@H]3[C@@H](O)[C@H](N)C[C@H](N)[C@H]3OC3O[C@H](CN)[C@@H](O)[C@H](O)[C@H]3N)[C@@H]2O)[C@H](N)[C@@H](O)[C@@H]1O (some centres not stated) has a reported normalised cell number of 1.02

Cc1ccc(S(=O)(=O)O[C@@H]2CCOC2=O)cc1 has a reported normalised cell number of 1.41

C=C1[C@@H](C)C2[C@H](Cc3c[nH]c4ccccc34)NC(=O)[C@]23C(=O)/C=C/C(=O)[C@H](O)/C(C)=C/[C@@H](C)C/C=C/[C@H]3[C@@H]1O (some centres not stated) has a reported normalised cell number of 1.25

CC(CC(=O)N1C(=O)OC[C@H]1c1ccccc1)N1CCOC1=S (some centres not stated) has a reported normalised cell number of 1.09

CN[C@@H]1C(O)[C@@H](O[C@@H]2[C@@H](O)[C@H](O[C@H]3OC(CN)=CC[C@H]3N)[C@@H](N)C[C@H]2N)OC[C@]1(C)O (some centres not stated) has a reported normalised cell number of 1.02

CCC(=O)OCC(=O)[C@@]1(OC(=O)CC)[C@@H](C)CC2C3CCC4=CC(=O)C=C[C@]4(C)C3(F)[C@@H](O)C[C@@]21C (some centres not stated) has a reported normalised cell number of 1.03

* * *

system: R275C/beta1; assay: modulators of BK channel variants, profiling panel, selectivity assay, cell-based, U2OS BacMam, thallium flux, beta subunits (AID 1259406); settings: at 30 µM;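 also: initial slope of Thallos dye fluorescence rise after thallium is added; log ratio against the mean of 0.3% DMSO vehicle wells on the same plate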
measuredQuantity: log fold change Tl+ flux
I'd appreciate a reply containing only the number, no unit.

CC(C)OC(=O)CCC/C=C\C[C@@H]1[C@@H](CC[C@@H](O)CCc2ccccc2)[C@H](O)C[C@@H]1O has a reported log fold change Tl+ flux of 0.476

O=C1CSCC(=O)N1c1csc(C(F)(F)F)c1-c1ccccc1 has a reported log fold change Tl+ flux of 0.122

CC(C)(S)C(N)C(=O)O (stereo unspecified) has a reported log fold change Tl+ flux of 0.00628

Oc1c(Cl)c(Cl)c(Cl)c2ccccc12 has a reported log fold change Tl+ flux of 0.527

Cc1ccc(C2=C(c3ccccc3)C(=O)C(c3ccccc3)=C2c2ccc(Cl)cc2)cc1 has a reported log fold change Tl+ flux of -0.08

Oc1c(Cl)cc(Cl)cc1C=Nc1nccs1 has a reported log fold change Tl+ flux of 0.112

CC(=O)N(C(C)=O)c1ccc2c3c(cccc13)CC2 has a reported log fold change Tl+ flux of 0.0421

CSC(NCc1cccnc1)=C(C#N)S(=O)(=O)c1ccc(Cl)cc1 has a reported log fold change Tl+ flux of 0.0793

C=C1/C(=C\C=C2/CCC[C@]3(C)[C@@H]([C@H](C)CCCC(C)(C)O)CC[C@@H]23)C[C@@H](O)C[C@@H]1O has a reported log fold change Tl+ flux of 0.0898

Cc1ccc(C(=O)Cn2cc([N+](=O)[O-])nc2C)cc1 has a reported log fold change Tl+ flux of 0.0164

Cc1nnc(SCC2=C(C(=O)O)N3C(=O)C(NC(=O)Cn4cnnn4)C3SC2)s1 (stereo unspecified) has a reported log fold change Tl+ flux of 0.00195

COC(=O)C(C#N)=CN(C)C has a reported log fold change Tl+ flux of 0.0127

COc1cc(C(F)(F)F)nc2ccc(C#CCOC(=O)Nc3cccc(Cl)c3)cc12 has a reported log fold change Tl+ flux of -0.0781

Cc1nc(-c2ccccc2)sc1C(=O)NC(=O)c1ccccc1O has a reported log fold change Tl+ flux of 0.0519

COC(=O)Nc1nc2ccc(C(=O)c3ccc(F)cc3)cc2[nH]1 has a reported log fold change Tl+ flux of -0.0436

CCCCCCCCCCCCSC(=S)Nc1ccc(Br)c(C)c1 has a reported log fold change Tl+ flux of 0.0206

COC(=O)c1c(S(=O)(=O)N2CCOCC2)c(C)n(C)c1C has a reported log fold change Tl+ flux of 0.0384

Cc1nn(-c2ccccc2)nc1CNC(=O)COc1ccccc1 has a reported log fold change Tl+ flux of -0.0187

O=C(O)CCSc1ccc2ccccc2c1 has a reported log fold change Tl+ flux of 0.0425

Nc1nc(Cl)nc2c1ncn2[C@H]1C[C@H](O)[C@@H](CO)O1 has a reported log fold change Tl+ flux of 0.022

O=S(=O)(c1ccc(-c2cc(C(F)(F)F)on2)s1)N1CCc2c([nH]c3ccc(F)cc23)C1 has a reported log fold change Tl+ flux of -0.0189

Cc1ccc(S(=O)(=O)NC(=O)NCc2csc3ccc(Cl)cc23)cc1 has a reported log fold change Tl+ flux of 0.48

COC(=O)C=C1NCC(O)CNC1=O (stereo unspecified) has a reported log fold change Tl+ flux of -0.0456

FC(F)(F)c1cc(-c2noc(-c3ccc4c(c3)CCO4)n2)cc(C(F)(F)F)c1 has a reported log fold change Tl+ flux of 0.191

NNC(=O)Cc1csc2nc(-c3ccccc3)nn12 has a reported log fold change Tl+ flux of 0.0323

COC(=O)C(C#N)=C1NC(C)=NC(SC)=C1C#N has a reported log fold change Tl+ flux of -0.0163

* * *

experiment: antimalarial activity against Dd2 strain (AID 2302);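 also: 0% = DMSO untreated growth and 100% = chloroquine plus artemisinin killed control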; conditions: P. falciparum Dd2 in RBCs, LDH growth readout, 72 h; at 2 µM
The source made the active and inactive calls.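 The calls were made as follows: active = growth inhibition above 50% at the single 2 µM test dose, taken to imply half-maximal potency below 2 µM; inactive = the rest.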
One label from this list, please: T = active, F = inactive

Short answer needed: outcome of this test for Cc1cccc(-c2cc3cc(Nc4ccnc5cc(-c6nccs6)ccc45)ccc3[nH]2)c1 ?
T

Short answer needed: outcome of this test for CCc1ccc(NC(=O)C=NN=C(N)N)cc1 ?
F

Short answer needed: outcome of this test for O=[N+]([O-])c1cccc(-n2nc(NCc3ccc(Cl)cc3)nc2-c2ccc(F)c(C(F)(F)F)c2)c1 ?
T

Short answer needed: outcome of this test for COc1cccc(NC(=O)Cn2c(C)c(C(=O)C(F)(F)F)c3ccccc32)c1 ?
T

Short answer needed: outcome of this test for CC(C)Cn1cc(C2CCN(CCN3CCC(CNC(=O)c4ccc(NC(=O)c5cc(Cl)cc(Cl)c5)cc4)CC3)CC2)c2ccccc21 ?
T

Short answer needed: outcome of this test for O=[N+]([O-])c1cccc(CNC2CCN(Cc3ccc(-c4ccccc4)cc3)CC2)c1 ?
T

Short answer needed: outcome of this test for COc1ccc(C(=O)Nc2ccc3oc(-c4ccc(C(F)(F)F)cc4)cc3c2)cc1CCCN(C)C ?
F

Short answer needed: outcome of this test for O=C(NCCN1CCC(c2ccncc2)CC1)c1ccc(Nc2nccc(Nc3ccc(Oc4ccccc4)cc3)n2)cc1 ?
T

Short answer needed: outcome of this test for O=C(Nc1ccccc1)Nc1cccc(-c2nn3c(OCCN4CCCC4)cccc3c2-c2ccncc2)c1 ?
T

Short answer needed: outcome of this test for CCCCCC(C)NC[C@@H](O)[C@H](Cc1ccccc1)NC(=O)c1cc(NCC)cc(N2CCCCS2(=O)=O)c1 (stereo partly specified) ?
T

Short answer needed: outcome of this test for NC(=O)c1ccccc1Nc1nc(Nc2ccc(N3CCOCC3)cc2)ncc1[N+](=O)[O-] ?
T

* * *

assay: SU-DIPG-XXV glioma cell viability, MIPE5.0 library, qHTS (AID 1347068);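 as to IC50: cells exposed to compound for 48 hours before viability readout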
Records with an inconclusive call do not appear. Calls of active or inactive are those of the source. Cut-off not given; nearly all actives show IC50 up to about 30 µM.
One label from this list, please: active, inactive

Short answer needed: outcome of this test for O=C1c2c(O)cc(O)cc2O[C@H](c2ccc(O)c(O)c2)[C@H]1O ?
inactive

Short answer needed: outcome of this test for CCCCC[C@H](O)/C=C/[C@H]1[C@H](O)CC(=O)[C@@H]1C/C=C\CCCC(=O)O ?
inactive

Short answer needed: outcome of this test for COc1ccc2nc3cc(Cl)ccc3c(Nc3cc(CN4CCCC4)c(O)c(CN4CCCC4)c3)c2n1 ?
active

Short answer needed: outcome of this test for Nc1nc(F)nc2c1ncn2[C@@H]1O[C@H](COP(=O)(O)O)[C@@H](O)[C@@H]1O ?
inactive

Short answer needed: outcome of this test for COC1=C(OC)C(=O)C(C/C=C(\C)CC/C=C(\C)CC/C=C(\C)CC/C=C(/C)CC/C=C(\C)CC/C=C(\C)CC/C=C(\C)CC/C=C(\C)CC/C=C(\C)CCC=C(C)C)=C(C)C1=O ?
inactive

Short answer needed: outcome of this test for Oc1cc(O)cc(/C=C/c2ccc(O)c(O)c2)c1 ?
inactive

Short answer needed: outcome of this test for CCOC(=O)C1=C(N)Oc2ccc(Br)cc2C1C(C#N)C(=O)OCC (stereo not given) ?
inactive

Short answer needed: outcome of this test for CC(C)(CO)[C@@H](O)C(=O)NCCC(=O)O ?
inactive

Short answer needed: outcome of this test for CN1C(C(=O)Nc2ccccn2)=C(O)c2sc(Cl)cc2S1(=O)=O ?
inactive

Short answer needed: outcome of this test for C[C@@H](c1ncncc1F)[C@](O)(Cn1cncn1)c1ccc(F)cc1F ?
inactive
